Test Target: GlcNAc(b1-2)[GlcNAc(b1-6)]Man(a1-6)[GlcNAc(b1-2)Man(a1-3)]Man(b1-4)GlcNAc(b1-4)[Fuc(a1-6)]GlcNAc
Protocol Details: glycan array binding signal (z-score within array); higher = stronger binding
Assay Setup: glycan notation: IUPAC condensed, linker removed
Only a selection was taken, and the strongest signals are over-represented in it overall.
Measured glycan array binding signal (z-score) of individual entries
Write no unit; give the number alone.

Query :: Tell me measured glycan array binding signal (z-score) for Sebin1 (Coprinopsis cinerea), A8PEE3 (protein) MTSPFYAHIHNVQDDNTWRFTLIFANRATADEWWRAISEAPANTSIAKSITRVTPQYYTHDVNIWNIWNFFADGNIKSISERFRGRLFIVLENDRGGRGITVIPPVPIVDHVSGNWFYIRSKTAPHLFWYYDERRSSIYASKEKRTRFKISIRNPSSQTPKNAIMINTDDVTIHIKENLYVGVDNNLGHIIPTRAYRTFKFGELESGAIAGFDVVENIEERCSSTFDGASLSISGPDSSSPGEPWELV please.
Result :: -0.058

Query :: Tell me measured glycan array binding signal (z-score) for Erv46-EDTA (Saccharomyces cerevisiae), P39727 (protein) MKFLVNVALVFMVVYISYIYAAAPEHHHHHHDYDIPTTENLYFQGAMDSVVTRPQLVVDRDRHAKLELNMDVTFPSMPCDLVNLDIMDDSGEMQLDILDAGFTMSRLNSEGRPVGDATELHVGGNGDGTAPVNNDPNYCGPCYGAKDQSQNENLAQEEKVCCQDCDAVRSAYLEAGWAFFDGKNIEQCEREGYVSKINEHLNEGCRIKGSAQINRIQGNLHFAPGKPYQNAYGHFHDTSLYDKTSNLNFNHIINHLSFGKPIQSHSKLLGNDKRHGGAVVATSPLDGRQVFPDRNTHFHQFSYFAKIVPTRYEYLDNVVIETAQFSATFHSRPLAGGRDKDHPNTLHVRGGIPGMFVFFEMSPLKVINKEQ please.
Result :: 1.14
